Readings of protein stability index for the listed sequences
# ASSAY_OVERVIEW: protein stability index of a GFP-peptide fusion (yeast GPS) (PSI 1-4); higher = more stable; sorted into four equal gates, so the index is relative within each strain
# ASSAY_CONDITIONS: ubr1∆
// no unit, no text: just the number

Guide cases for protein stability index, answers given:
- BIOSEQUENCE: "HPTVVDAIDNSDEITQD [IRR1]"
  RECORDED_VALUE: 3.15
- BIOSEQUENCE: "DVIAWKNVLANSIWGSS [ITC1]"
  RECORDED_VALUE: 3.28
- BIOSEQUENCE: "ARTATVSKKWAAAAVCE [RPL14A]"
  RECORDED_VALUE: 2.71

Q) Entry under review: DSRTTTGAYIANRVTDK [PRE3] . Reported protein stability index?
A) 3.08

Q) Give its protein stability index value. Item: SSFNFNKNLPFVWLSSE [SWI1]
A) 2.4

Q) Can you share its protein stability index? I mean this sequence: YIEDGRNPDIYTREFVE [NUT2]
A) 3.33

Q) Any idea what its protein stability index is? The sequence is KRADISKRRITEELSIT [SMC1]
A) 1.83

Q) Would you mind telling me what protein stability index value was observed for GHLPEVSSKCNDIHLRF [ECM29] ?
A) 3.17

Q) Quick check: protein stability index of SHTQNIGHLIKTRFKGS [SMC2] ?
A) 2.27

Q) Any idea what protein stability index was measured for GSNQQSSTGGGLFGNKP [YGR119C/NUP57] ?
A) 3.28

Q) // returns reported protein stability index for input PMEVMGLMLGEFVDDYT [RPN11]
A) 3.08

Q) What does the record list as protein stability index for GNQRKILQYSRTWYESF [YJR042W/NUP85] ?
A) 2.21

Q) Query: protein stability index; subject: LPAYSGEIGDFFSSDWR [POP1]
A) 3.16

Q) Any idea what protein stability index was measured for ALSQSSLLKTKLKQQSS [RRI1] ?
A) 2.26

Q) Returns the measured protein stability index for the input sequence. Input: FPQYKLTTFANQVMMDR [ARP7]
A) 2.4

Q) Tell me the measured protein stability index of TDLNQDSAAIIAATGLN [GRR1] , please.
A) 1.55

Q) Quick check: protein stability index of EKDAVSVFGFRTQFGGG [RPS24A] ?
A) 1.93

Q) Which protein stability index value belongs to PSIIFIDEVDSIATKRF [RPT3] ?
A) 3.19

Q) Reported protein stability index for ILTSKVNAIKNEVKEWA [DSN1] : what is it?
A) 2.82

Q) Param item = LSGNPLTSVTNDICSVE [SIR4] ; retrieve measured protein stability index.
A) 2.96

Q) Look up protein stability index for this sequence: LDRISSYTAFSRLTLLL [PRP8]
A) 1.95

Q) I have this sequence here, VLEKKTRQASDLASSKE [RPN5] , and I need its recorded protein stability index.
A) 2.97

Q) // returns reported protein stability index for input RKFALEKLYIFYKLNMP [SRP72]
A) 1.29

----------
# reported protein stability index; entries follow
# ASSAY_OVERVIEW: protein stability index of a GFP-peptide fusion (yeast GPS) (PSI 1-4); higher = more stable; sorted into four equal gates, so the index is relative within each strain
# ASSAY_CONDITIONS: ubr1∆

Take a look at these entries with their results.
- BIOSEQUENCE: "HMADAKIMPKDILQITK [SIR4]"
  protein stability index: 2.95
- BIOSEQUENCE: "VRTHMRNMIIVPEMIGS [RPS15]"
  protein stability index: 1.54
- BIOSEQUENCE: "TLSEPVQGELKPTVILK [FAS1]"
  protein stability index: 1.63

Q) Please give the measured protein stability index for this sequence: IDFFKTDDSFEDKVFAS [BRN1]
A) 2.89

Q) Could you share which protein stability index value was measured for VNCFHEDTELYQELIKN [YJL039C/NUP192] ?
A) 2.67

Q) Data request, read-out protein stability index, for KKKTTLEDFENFKGLAK [YIL149C/MLP2]
A) 2.91

Origin of measurements: the supplement of paper PMC9732359
